# credit: PubChem BioAssay AID1159580

Known normalized growth of a selection of compounds
assay: chemical genetic growth profiling, strain panel (AID 1159580);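 note: tested at 20 µM; growth read once vehicle control cultures reached saturation at 30 °C; 1 = growth at the plate median or of vehicle wells; lower values mean less growth of the strain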; conditions: S. cerevisiae deletion strains, growth OD, locus YLR102C, strain apc9, hits give low values
In all, about 5,500 compounds went through this assay and about 2,000 (36%) were called active. About 18% were inconclusive and are not listed. Some of the results follow.
measured-parameter: normalized growth

>  <compound>
NC(=O)c1cccc(N)c1

>  <observed-result>
0.998 (inactive)

$$$$
>  <compound>
CC(=O)N[C@@H](CS)C(=O)O

>  <observed-result>
1.02 (inactive)

$$$$
>  <compound>
CC(C)NCC(O)c1cc(O)cc(O)c1 (configuration not stated)

>  <observed-result>
0.994 (inactive)

$$$$
>  <compound>
C#CCCCCCCCCCCCC(O)CC(O)CO (configuration not stated)

>  <observed-result>
1.01 (inactive)

$$$$
>  <compound>
C#CCCCCCCCCCCCC(=O)CC(O)COC(C)=O (configuration not stated)

>  <observed-result>
0.97 (inactive)

$$$$
>  <compound>
CC[N+](CC)(CC)CCOc1cccc(OCC[N+](CC)(CC)CC)c1OCC[N+](CC)(CC)CC

>  <observed-result>
1.01 (inactive)

$$$$
>  <compound>
NS(=O)(=O)c1cc2c(cc1Cl)NC(C(Cl)Cl)NS2(=O)=O (configuration not stated)

>  <observed-result>
1.01 (inactive)

$$$$
>  <compound>
CCCCOC(=O)c1ccccc1C(=O)OCCCC

>  <observed-result>
0.982 (inactive)

$$$$
>  <compound>
Nc1nc2ncc(=O)[nH]c2c(=O)[nH]1

>  <observed-result>
0.984 (inactive)

$$$$
>  <compound>
COc1ccc(CCN2CCC(Nc3nc4ccccc4n3Cc3ccc(F)cc3)CC2)cc1

>  <observed-result>
0.991 (inactive)

$$$$
>  <compound>
CC(=O)Oc1c(C)cccc1C(=O)O

>  <observed-result>
1.01 (inactive)

$$$$
>  <compound>
CC1C[C@H]2CC(=O)[C@H]3CCCN4CCC[C@H]2[C@]34C1 (some centres not stated)

>  <observed-result>
1.02 (inactive)

$$$$
>  <compound>
CC(=O)OCC(COC(C)=O)OC(C)=O

>  <observed-result>
0.997 (inactive)

$$$$
>  <compound>
C[N+]1(C)C2CC(OC(=O)[C@@H](CO)c3ccccc3)CC1C1OC12 (some centres not stated)

>  <observed-result>
1.02 (inactive)

$$$$
>  <compound>
CCCCOC(=O)c1ccc(N)cc1

>  <observed-result>
0.955 (inactive)

$$$$
>  <compound>
CCC(C)c1cnc(CC(C)C)c(=O)n1O (configuration not stated)

>  <observed-result>
1.02 (inactive)

$$$$
>  <compound>
O=C1OC(c2ccc(O)cc2)(c2ccc(O)cc2)c2ccccc21

>  <observed-result>
0.978 (inactive)

$$$$
>  <compound>
Oc1ccc(Cl)cc1

>  <observed-result>
0.976 (inactive)

$$$$
>  <compound>
CC(C)NC[C@H](O)COc1cccc2ccccc12

>  <observed-result>
1.02 (inactive)

$$$$
>  <compound>
CC1(C)C2(Cl)C(Cl)C(Cl)C(Cl)(C(Cl)Cl)C1(Cl)C2Cl (configuration not stated)

>  <observed-result>
0.986 (inactive)

$$$$
>  <compound>
C=C1CCC(=O)C(C)CCC2C1CC2(C)C (configuration not stated)

>  <observed-result>
0.994 (inactive)

$$$$
>  <compound>
Oc1ccc2c(c1)OCC1c3cc4c(cc3OC21)OCO4 (configuration not stated)

>  <observed-result>
0.984 (inactive)

$$$$
>  <compound>
COc1ccc2c(c1O)OCC1c3cc4c(cc3OC21)OCO4 (configuration not stated)

>  <observed-result>
0.983 (inactive)

$$$$
>  <compound>
COC(=O)C1=CCCN(C)C1

>  <observed-result>
1 (inactive)

$$$$
>  <compound>
CC1(C)NC(=O)N(c2ccc([N+](=O)[O-])c(C(F)(F)F)c2)C1=O

>  <observed-result>
0.965 (inactive)

$$$$
>  <compound>
CC[C@H](C)C(=O)O[C@H]1C[C@@H](C)C=C2C=C[C@H](C)[C@H](CC[C@@H]3C[C@@H](O)CC(=O)O3)[C@H]21

>  <observed-result>
0.994 (inactive)

$$$$
>  <compound>
Cc1c(Cl)cccc1Nc1ccccc1C(=O)O

>  <observed-result>
0.788 (active)

$$$$
>  <compound>
CC(=O)OCC[C@H](C)CCC=C(C)C

>  <observed-result>
1.02 (inactive)

$$$$
>  <compound>
CCCCCCOc1ccccc1C(N)=O

>  <observed-result>
0.667 (active)

$$$$
>  <compound>
C/C1=C\CCC(=O)C2CC(C)(C)C2CC1 (configuration not stated)

>  <observed-result>
1.02 (inactive)

$$$$
>  <compound>
C#CCCCCCCCCCCCC(O)CC(O)COC(C)=O (configuration not stated)

>  <observed-result>
0.968 (inactive)

$$$$
>  <compound>
O=C(C1CCCCC1)N1CC(=O)N2CCc3ccccc3C2C1 (configuration not stated)

>  <observed-result>
1.01 (inactive)

$$$$
>  <compound>
O=C1CC2OCC=C3CN4CC[C@]56c7ccccc7N1C5[C@H]2[C@H]3CC46 (some centres not stated)

>  <observed-result>
1 (inactive)

$$$$
>  <compound>
CCNC(=O)CC[C@H](N)C(=O)O

>  <observed-result>
0.987 (inactive)

$$$$
>  <compound>
CC1=CC2C(CC1=O)C(C)=CCC2C(C)C (configuration not stated)

>  <observed-result>
0.985 (inactive)

$$$$
>  <compound>
C=CCSCC1Nc2cc(Cl)c(S(N)(=O)=O)cc2S(=O)(=O)N1 (configuration not stated)

>  <observed-result>
1.04 (inactive)

$$$$
>  <compound>
CC1(C)OC(=O)C=CC2(C)C1CC(O)C1(C)C2CCC2(C)C(c3ccoc3)OC(=O)C3OC321 (configuration not stated)

>  <observed-result>
1.01 (inactive)

$$$$
>  <compound>
O=C(Cn1ccnc1[N+](=O)[O-])NCCO

>  <observed-result>
1.01 (inactive)

$$$$
>  <compound>
CCCCN(CCCC)CCCOC(=O)c1ccc(N)cc1

>  <observed-result>
1.01 (inactive)

$$$$
>  <compound>
C=C1CCC(OC(C)=O)/C(C)=C/C[C@@H]2[C@@H]1CC2(C)C (some centres not stated)

>  <observed-result>
1 (inactive)

$$$$
>  <compound>
Nc1ccc(N=Nc2ccccc2)c(N)n1

>  <observed-result>
1.02 (inactive)

$$$$
>  <compound>
COc1ccc2c(c1OC)C(=O)OC2[C@H]1c2c(cc3c(c2OC)OCO3)CCN1C (some centres not stated)

>  <observed-result>
0.994 (inactive)

$$$$
